Biological target: Pantothenate synthetase (Mycobacterium tuberculosis (strain ATCC 25618 / H37Rv))
Assay: Coupled enzyme confirmation of inhibitors against recombinant Mtb PanC (AID 375)
Settings: coupled enzyme assay; at 10 µM, hits give high values
Assign t to entries whose inhibition meets or exceeds 2%; assign f to the rest.

Q. Could you tell me if the measured inhibition of O=C1CC(c2ccccc2)n2nc(NC(=O)c3ccccn3)nc2N1 (configuration not stated) reaches 2% or more?
A. f

Q. Could you tell me if the measured inhibition of "Cc1ccc(S(=O)(=O)CCc2nnc(NC(=O)c3cnccn3)s2)cc1" reaches 2% or more?
A. t

Q. Could you tell me if the measured inhibition of O=C1c2ccccc2C(Nc2cccnc2)N1Cc1ccccc1Cl (configuration not stated) reaches 2% or more?
A. f

Q. Could you tell me if the measured inhibition of "COc1ccc(S(=O)(=O)NCc2ccc(C(=O)O)cc2)cc1" reaches 2% or more?
A. f

Q. Could you tell me if the measured inhibition of "CC(C)Cc1nc(S(=O)(=O)c2ccc(Cl)cc2)c(N2CCOCC2)o1" reaches 2% or more?
A. f

Q. Could you tell me if the measured inhibition of "CCOc1ccc(C(=O)CN2CCN(S(=O)(=O)c3ccc(OC)cc3)CC2)cc1" reaches 2% or more?
A. f

Q. Could you tell me if the measured inhibition of "Cc1nc(SCC(=O)NCc2ccco2)c2c(C)c(C)sc2n1" reaches 2% or more?
A. t

Q. Could you tell me if the measured inhibition of "CC1CCN(c2oc(-c3cccc4ccccc34)nc2C#N)CC1" reaches 2% or more?
A. f

Q. Could you tell me if the measured inhibition of "O=C(NC1CCCC1)c1ccc2nc[nH]c2c1" reaches 2% or more?
A. f

Q. Could you tell me if the measured inhibition of "O=C1c2ccccc2C(=O)N1c1cccc(-c2nc3ccccc3o2)c1" reaches 2% or more?
A. t

Q. Could you tell me if the measured inhibition of "Cc1ccc(-c2cc3nc4c(c(=O)n3[nH]2)CCCC4)cc1" reaches 2% or more?
A. t

Q. Could you tell me if the measured inhibition of "CCOC(=O)c1c(NC(=O)CSc2nnc(-c3cccnc3)o2)sc(C)c1C" reaches 2% or more?
A. t

Q. Could you tell me if the measured inhibition of "C=CCNC(=O)c1cc(-c2ccccc2O)on1" reaches 2% or more?
A. f

Q. Could you tell me if the measured inhibition of "COc1ccc2c(c1)cc(C(=O)O)n2C" reaches 2% or more?
A. t

Q. Could you tell me if the measured inhibition of "O=C(CSc1nc(-c2ccco2)cc(C(F)(F)F)n1)N1CCCc2ccccc21" reaches 2% or more?
A. t

Q. Could you tell me if the measured inhibition of "O=C(O)c1ccc2noc(-c3ccccc3)c2c1" reaches 2% or more?
A. f

Q. Could you tell me if the measured inhibition of CC(=O)NC(CCS(C)(=O)=O)C(=O)Nc1cccc(C)c1C (configuration not stated) reaches 2% or more?
A. f

Q. Could you tell me if the measured inhibition of "CN1/C(=C\C(=O)C(F)F)C(C)(C)c2ccccc21" reaches 2% or more?
A. f

Q. Could you tell me if the measured inhibition of Cc1ccccc1N(CC(=O)NCC1CCCO1)C(=O)C1(C)CC(=O)N=C2C=CC=CN21 (configuration not stated) reaches 2% or more?
A. f

Q. Could you tell me if the measured inhibition of "COc1ccc(CCNC(=O)c2nc3ncccn3n2)cc1OC" reaches 2% or more?
A. f

Q. Could you tell me if the measured inhibition of "CCOc1nc(NCCC2=CCCCC2)nc(N2CCOCC2)n1" reaches 2% or more?
A. f

Q. Could you tell me if the measured inhibition of "Cc1ccc(C(=O)OCC(=O)c2ccc(Cl)s2)s1" reaches 2% or more?
A. t

Q. Could you tell me if the measured inhibition of "Cc1ccc(C(=O)CSc2n[nH]c(-c3ccco3)n2)cc1C" reaches 2% or more?
A. f

Q. Could you tell me if the measured inhibition of CC(NS(=O)(=O)c1ccc(F)cc1)C(c1cccs1)N1CCN(C)CC1 (configuration not stated) reaches 2% or more?
A. f

Q. Could you tell me if the measured inhibition of "Cc1ccc(C)c(-c2nc3ccc(N)cc3[nH]2)c1" reaches 2% or more?
A. f

Q. Could you tell me if the measured inhibition of "N#CCc1c(C#N)c(N)nc(N2CCN(S(=O)(=O)c3ccccc3)CC2)c1C#N" reaches 2% or more?
A. t

Q. Could you tell me if the measured inhibition of C=CCn1c(SC(C)C(=O)NC2(C#N)CCCCC2)nnc1-c1ccc(OC)cc1 (configuration not stated) reaches 2% or more?
A. t

Q. Could you tell me if the measured inhibition of Cc1ccc(NC(=O)CC2C(=O)NC3CCCCC3N2C(=O)c2ccc(F)cc2)cc1C (configuration not stated) reaches 2% or more?
A. t

Q. Could you tell me if the measured inhibition of "Cc1cc(C)n(-c2nnc(C)n2/N=C/c2ccco2)n1" reaches 2% or more?
A. f

Q. Could you tell me if the measured inhibition of "O=C(CSc1nnc(-c2ccccc2)o1)N1CCN(c2ccccc2)CC1" reaches 2% or more?
A. f

Q. Could you tell me if the measured inhibition of "CN(C)c1ccc(C=Nc2ccc(N(C)C)cc2)cc1" reaches 2% or more?
A. f

Q. Could you tell me if the measured inhibition of "CN(C)c1nc(SCCOC(=O)c2ccccc2)nc(N(C)C)n1" reaches 2% or more?
A. t

Q. Could you tell me if the measured inhibition of "COc1ccc(-c2ccc(-c3noc(-c4ccccc4)n3)c(OC)n2)cc1" reaches 2% or more?
A. t

Q. Could you tell me if the measured inhibition of CCOC(=O)C1=C(C)Nc2nnnn2C1c1ccc(OC)c(Br)c1 (configuration not stated) reaches 2% or more?
A. f

Q. Could you tell me if the measured inhibition of "COc1ccccc1N(CC(=O)Nc1cccnc1)S(C)(=O)=O" reaches 2% or more?
A. t
